assay remarks: soluble on expression in E. coli; label from the status in PepcDB or PDB records
parameter measured: soluble on expression in E. coli

item sequence: MNSSPAGTPSPQPSRANGNINLGPSANPNAQPTDFDFLKVIGKGNYGKVLLAKRKSDGAFYAVKVLQKKSILKKKEQSHIMAERSVLLKNVRHPFLVGLRYSFQTPEKLYFVLDYVNGGELFFHLQRERRFLEPRARFYAAEVASAIGYLHSLNIIYRDLKPENILLDCQGHVVLTDFGLCKEGVEPEDTTSTFCGTPEYLAPEVLRKEPYDRAVDWWCLGAVLYEMLHGLPPFYSQDVSQMYENILHQPLQIPGGRTVAACDLLQSLLHKDQRQRLGSKADFLEIKNHVFFSPINWDDLYHKRLTPPFNPNVTGPADLKHFDPEFTQEAVSKSIGCTPDTVASSSGASSAFLGFSYAPEDDDILDC
observed result: soluble
--
item sequence: MGSDKIHHHHHHMKVNILMSTYNGQEFIAQQIQSIQKQTFENWNLLIRDDGSSDETPKIIADFAKSDARIRFINADKRENFGVIKNFYTLLKYEKADYYFFSDQDDVWQPQKLELTLASVEKENNQIPLMVYTDLTVVDRDLQVLHDSMIKTQSHHANTSLLEELTENTVTGGTMMVNHCLAKQWKQCYDDLIMHDWYLALLAASLGKLIYLDETTELYRQHESNVLGARTWSKRLKNWLRPHRLVKKYWWLVTSSQQQASHLLELDLSAANKAIIQAYVTLLDQSFLNRIKWLKQYGFAKNRAFHTFVFKTLIITKFGYRRK
observed result: not soluble
--
item sequence: MSKRKAEEAPAPKLASIFTKKVKPAEEDNNQKSWKFVCWNVAGLRACVKKSDFKEVLAEEPDLVFLGETKCKEWPPEMEETFKNYTKTLVVSTEKNGGYAGVGLLSKCAPMKVHKGIGDPEFDTAGRLIIAEFSKFYFIGAYVPNSGAKLVNLEKRGRWEKLLTEKMKEMDEKKPVIYGGDLNVAHNEIDLKNPESNRNKTAGFTDQERGWFSEMLELGFTDTFRAMHPDEKKYSFWSYLANSRQKDVGWRLDYYVVSNRIMNKVKRSDIMSSVMGSDHAPVVMQIDF
observed result: soluble
--
item sequence: GPLGSGTWDCDTCLVQNKPEAVKCVACETPKPG
observed result: soluble
--
item sequence: MKLNCCGVTQIADRVERLAHTHGKTWHTWHTDQDKTLPLGVPQLMMGFTADGQADPAMQQQRNQRLGIVKSAIKAQRADIQIPKADPGADGWQHGKTIQINDPTGHLHGPATSPTPQNTNSRSTQLEHHHHHH
observed result: not soluble

Req: Using the record for "MAHHHHHHMHPYLFICKEGNNNNGSTTNLKSGMSLSDRRHTPLGRNLSESTELSQSLSSRSGGSSPIPRPNLDDITRRLLEENEGMLFEINKLTRELTDERAKVSGLHETLAERSAELELMKEKLSDATVVATDDTGKPINYKRECDGLAADNNRLVKEYERVCTELEKRTEEIRREMGDQRDEAEGKTISVQVEQFNREITALVPTVEHIVNSLKRCVVTGGIAEERILENAQKELHTMRRITDTVRRMNAGDETCVKGLLTQIQKGEQLTAPGDVAVVIRWMVVRAFEAGLQSAEGNLRTLVDILNNSKGRYTSENATTGSGEVPASGISVRQMFRLLKM" , report its soluble on expression in E. coli.
Resp: not soluble

Req: Using the record for "MNIREIAAKCSKCGYCTTCPTYRIEGWETVSPRGKIQLALKYVDGEIDVDQKIVKDIFKCSVCGLCQEVCPVELPLIDFWEELRRTLVQKGLAPLSVHRKLREILEHHHHHH" , report its soluble on expression in E. coli.
Resp: not soluble
